# TEST_TARGET: Protein kinase C beta type (Homo sapiens)
# TEST_SUMMARY: Inhibition of human recombinant PKCbeta1 at < 10 uM after 10 mins by radiometric assay
Active and inactive are the calls of the source. No cut-off for these calls is given here.
ENDPOINT_NAME: inhibition

COMPOUND | inhibition
COc1ccc2sc3c(c2c1)SCCNC3=O | inactive
COc1ccc2sc3c(c2c1)SCCCNC3=O | inactive
O=C1NCCCc2c1[nH]c1ccc(O)cc21 | inactive
COc1ncc2sc3c(c2n1)SCCNC3=O | inactive
O=C1NCCCSc2c1sc1ccc(O)cc21 | inactive
O=C1NCCCc2c1oc1ccc(O)cc21 | inactive
[N-]=[N+]=Nc1ccc2sc3c(c2c1)SCCNC3=O | inactive

For the compound `O=C1NCCSc2c1sc1ccc(O)cc21` , what inhibition is on record?
inactive
